Experiment: Ratio of retention of tracer Gallium in Heart to blood was determined after intravenous administration to rats after 15 min
Type: functional
assay-endpoint: Ratio

[[record]]
smiles_string = "COc1cc(O)c(/C=N\\CC(C)(C)CNCCNCC(C)(C)C/N=C/c2c(O)cc(OC)cc2OC)c(OC)c1"
observed_result = 9.6

[[record]]
smiles_string = "COc1cc(O)c(/C=N/CCCNCCNCCC/N=C/c2c(O)cc(OC)cc2OC)c(OC)c1"
observed_result = 18.1

[[record]]
smiles_string = "CCN(CC)c1ccc(/C=N/CCCNCCNCCC/N=C/c2ccc(N(CC)CC)cc2O)c(O)c1"
observed_result = 4.5


----------
Assay: Ratio of retention of tracer Gallium in Heart to Liver was determined after intravenous administration to rats after 120 min
Type: functional
assay-endpoint: Ratio

[[record]]
smiles_string = "COc1ccc(/C=N/CCCNCCNCCC/N=C/c2ccc(OC)cc2O)c(O)c1"
observed_result = 1.6

[[record]]
smiles_string = "COc1ccc(O)c(/C=N/CCCNCCNCCC/N=C/c2cc(OC)ccc2O)c1"
observed_result = 0.42

[[record]]
smiles_string = "CCN(CC)c1ccc(/C=N/CCCNCCNCCC/N=C/c2ccc(N(CC)CC)cc2O)c(O)c1"
observed_result = 0.86

[[record]]
smiles_string = "CCN(CC)c1ccc(/C=N\\CC(C)(C)CNCCNCC(C)(C)C/N=C/c2ccc(N(CC)CC)cc2O)c(O)c1"
observed_result = 0.5

[[record]]
smiles_string = "COc1cc(O)c(/C=N\\CC(C)(C)CNCCNCC(C)(C)C/N=C/c2c(O)cc(OC)cc2OC)c(OC)c1"
observed_result = 3.24

[[record]]
smiles_string = "CC(C)c1ccc(O)c(/C=N/CCCNCCNCCC/N=C/c2cc(C(C)C)ccc2O)c1"
observed_result = 0.75

[[record]]
smiles_string = "CCOc1cc(C)c(/C=N/CCCNCCNCCC/N=C/c2c(C)cc(OCC)cc2O)c(O)c1"
observed_result = 2.7

[[record]]
smiles_string = "COc1cc(O)c(/C=N/CCCNCCNCCC/N=C/c2cc(C)c(OC)cc2O)cc1C"
observed_result = 1.92

[[record]]
smiles_string = "Oc1ccccc1/C=N/CCCNCCNCCC/N=C/c1ccccc1O"
observed_result = 0.9

[[record]]
smiles_string = "COc1cc(C)c(/C=N/CCCNCCNCCC/N=C/c2c(C)cc(OC)cc2O)c(O)c1"
observed_result = 3.6

[[record]]
smiles_string = "COc1cc(O)c(/C=N/CCCNCCNCCC/N=C/c2c(O)cc(OC)cc2OC)c(OC)c1"
observed_result = 4.1


----------
Tested on: Rattus norvegicus
Assay: Retention of tracer Gallium in heart of rats after intravenous administration and Gallium-67 Bis(salicylaldimine) after 1 min
Format: functional
Property: Injected dose; scope: individual molecules
assay-endpoint: Injected dose (%)

[[record]]
smiles_string = "Oc1ccccc1/C=N/CCCNCCNCCC/N=C/c1ccccc1O"
observed_result = 0.45

[[record]]
smiles_string = "CCN(CC)c1ccc(/C=N/CCCNCCNCCC/N=C/c2ccc(N(CC)CC)cc2O)c(O)c1"
observed_result = 0.69

[[record]]
smiles_string = "CC(C)c1ccc(O)c(/C=N/CCCNCCNCCC/N=C/c2cc(C(C)C)ccc2O)c1"
observed_result = 0.67

[[record]]
smiles_string = "COc1cc(C)c(/C=N/CCCNCCNCCC/N=C/c2c(C)cc(OC)cc2O)c(O)c1"
observed_result = 1.08

[[record]]
smiles_string = "COc1ccc(O)c(/C=N/CCCNCCNCCC/N=C/c2cc(OC)ccc2O)c1"
observed_result = 0.34

[[record]]
smiles_string = "COc1ccc(/C=N/CCCNCCNCCC/N=C/c2ccc(OC)cc2O)c(O)c1"
observed_result = 0.67

[[record]]
smiles_string = "CCN(CC)c1ccc(/C=N\\CC(C)(C)CNCCNCC(C)(C)C/N=C/c2ccc(N(CC)CC)cc2O)c(O)c1"
observed_result = 0.66

[[record]]
smiles_string = "CCOc1cc(C)c(/C=N/CCCNCCNCCC/N=C/c2c(C)cc(OCC)cc2O)c(O)c1"
observed_result = 0.91

[[record]]
smiles_string = "COc1cc(O)c(/C=N/CCCNCCNCCC/N=C/c2c(O)cc(OC)cc2OC)c(OC)c1"
observed_result = 1.04

[[record]]
smiles_string = "COc1cc(O)c(/C=N\\CC(C)(C)CNCCNCC(C)(C)C/N=C/c2c(O)cc(OC)cc2OC)c(OC)c1"
observed_result = 1.03

[[record]]
smiles_string = "COc1cc(O)c(/C=N/CCCNCCNCCC/N=C/c2cc(C)c(OC)cc2O)cc1C"
observed_result = 0.88


----------
Assay: Ratio of retention of tracer Gallium in Heart to Liver was determined after intravenous administration to rats after 1 min
Assay type: functional
Label scheme for Ratio: lower than 0.2 is false (0), 0.2 and above is true (1).

[[record]]
smiles_string = "COc1ccc(O)c(/C=N/CCCNCCNCCC/N=C/c2cc(OC)ccc2O)c1"
class = "false (0)"

[[record]]
smiles_string = "CC(C)c1ccc(O)c(/C=N/CCCNCCNCCC/N=C/c2cc(C(C)C)ccc2O)c1"
class = "false (0)"

[[record]]
smiles_string = "COc1cc(O)c(/C=N/CCCNCCNCCC/N=C/c2cc(C)c(OC)cc2O)cc1C"
class = "false (0)"

[[record]]
smiles_string = "COc1cc(C)c(/C=N/CCCNCCNCCC/N=C/c2c(C)cc(OC)cc2O)c(O)c1"
class = "true (1)"

[[record]]
smiles_string = "COc1ccc(/C=N/CCCNCCNCCC/N=C/c2ccc(OC)cc2O)c(O)c1"
class = "true (1)"


----------
Property: Injected dose; scope: individual compounds
Tested on: Rattus norvegicus
Experiment: Retention of tracer Gallium in kidney of rats after intravenous administration and Gallium-67 Bis(salicylaldimine) after 120 min
Format: functional
assay-endpoint: Injected dose (%)

[[record]]
smiles_string = "CCOc1cc(C)c(/C=N/CCCNCCNCCC/N=C/c2c(C)cc(OCC)cc2O)c(O)c1"
target_under_test = "Rattus norvegicus"
observed_result = 2.42

[[record]]
smiles_string = "COc1cc(C)c(/C=N/CCCNCCNCCC/N=C/c2c(C)cc(OC)cc2O)c(O)c1"
target_under_test = "Rattus norvegicus"
observed_result = 1.94

[[record]]
smiles_string = "Oc1ccccc1/C=N/CCCNCCNCCC/N=C/c1ccccc1O"
target_under_test = "Rattus norvegicus"
observed_result = 1.4

[[record]]
smiles_string = "COc1ccc(O)c(/C=N/CCCNCCNCCC/N=C/c2cc(OC)ccc2O)c1"
target_under_test = "Rattus norvegicus"
observed_result = 1.19

[[record]]
smiles_string = "CC(C)c1ccc(O)c(/C=N/CCCNCCNCCC/N=C/c2cc(C(C)C)ccc2O)c1"
target_under_test = "Rattus norvegicus"
observed_result = 3.95

[[record]]
smiles_string = "CCN(CC)c1ccc(/C=N\\CC(C)(C)CNCCNCC(C)(C)C/N=C/c2ccc(N(CC)CC)cc2O)c(O)c1"
target_under_test = "Rattus norvegicus"
observed_result = 5.17

[[record]]
smiles_string = "COc1ccc(/C=N/CCCNCCNCCC/N=C/c2ccc(OC)cc2O)c(O)c1"
target_under_test = "Rattus norvegicus"
observed_result = 1.69

[[record]]
smiles_string = "CCN(CC)c1ccc(/C=N/CCCNCCNCCC/N=C/c2ccc(N(CC)CC)cc2O)c(O)c1"
target_under_test = "Rattus norvegicus"
observed_result = 4.67

[[record]]
smiles_string = "COc1cc(O)c(/C=N/CCCNCCNCCC/N=C/c2c(O)cc(OC)cc2OC)c(OC)c1"
target_under_test = "Rattus norvegicus"
observed_result = 2.17

[[record]]
smiles_string = "COc1cc(O)c(/C=N\\CC(C)(C)CNCCNCC(C)(C)C/N=C/c2c(O)cc(OC)cc2OC)c(OC)c1"
target_under_test = "Rattus norvegicus"
observed_result = 5.4


----------
Property: Ratio; scope: individual molecules
Assay: Ratio of retention of tracer Gallium in Heart to blood was determined after intravenous administration to rats after 15 min
Type: functional
assay-endpoint: Ratio

[[record]]
smiles_string = "CCN(CC)c1ccc(/C=N\\CC(C)(C)CNCCNCC(C)(C)C/N=C/c2ccc(N(CC)CC)cc2O)c(O)c1"
observed_result = 1.9

[[record]]
smiles_string = "COc1ccc(O)c(/C=N/CCCNCCNCCC/N=C/c2cc(OC)ccc2O)c1"
observed_result = 2.6

[[record]]
smiles_string = "CCOc1cc(C)c(/C=N/CCCNCCNCCC/N=C/c2c(C)cc(OCC)cc2O)c(O)c1"
observed_result = 20.9

[[record]]
smiles_string = "COc1ccc(/C=N/CCCNCCNCCC/N=C/c2ccc(OC)cc2O)c(O)c1"
observed_result = 17.6

[[record]]
smiles_string = "Oc1ccccc1/C=N/CCCNCCNCCC/N=C/c1ccccc1O"
observed_result = 8.3


----------
Test: Ratio of retention of tracer Gallium in Heart to Liver was determined after intravenous administration to rats after 1 min
Format: functional
Property: Ratio; scope: individual compounds
assay-endpoint: Ratio

[[record]]
smiles_string = "CCN(CC)c1ccc(/C=N/CCCNCCNCCC/N=C/c2ccc(N(CC)CC)cc2O)c(O)c1"
assay_endpoint = "Ratio"
observed_result = 0.24

[[record]]
smiles_string = "CCN(CC)c1ccc(/C=N\\CC(C)(C)CNCCNCC(C)(C)C/N=C/c2ccc(N(CC)CC)cc2O)c(O)c1"
assay_endpoint = "Ratio"
observed_result = 0.17

[[record]]
smiles_string = "CCOc1cc(C)c(/C=N/CCCNCCNCCC/N=C/c2c(C)cc(OCC)cc2O)c(O)c1"
assay_endpoint = "Ratio"
observed_result = 0.29

[[record]]
smiles_string = "Oc1ccccc1/C=N/CCCNCCNCCC/N=C/c1ccccc1O"
assay_endpoint = "Ratio"
observed_result = 0.2

[[record]]
smiles_string = "COc1cc(O)c(/C=N/CCCNCCNCCC/N=C/c2c(O)cc(OC)cc2OC)c(OC)c1"
assay_endpoint = "Ratio"
observed_result = 0.32

[[record]]
smiles_string = "COc1cc(O)c(/C=N\\CC(C)(C)CNCCNCC(C)(C)C/N=C/c2c(O)cc(OC)cc2OC)c(OC)c1"
assay_endpoint = "Ratio"
observed_result = 0.23

